The entries below come with measured growth inhibition values attached.
test: NCI Yeast Anticancer Drug Screen. Data for the mlh1 rad18 strain (AID 175); conditions: S. cerevisiae mlh1 rad18 strain growth inhibition; at 50.0 µM; stronger effect = higher value
The panel holds about 79,000 compounds, 15% with a hit somewhere; the sample as a whole holds those more often.

# compound, measurement unit, growth inhibition
records = [
    ("C[N+](C)(C)N=C1CCCCC1", "%", -16.8),
    ("CCCCCCCC/C=C/CCCCCCCC(=O)NN(C)C", "%", -11.3),
    ("CC(C)NC(=O)C1CC2C=CC1C2 (centres undefined)", "%", 14.8),
    ("CCOc1ccccc1NCN1C(=O)c2ccccc2C1=O", "%", -20.1),
    ("CCC/C(=N/NC(N)=O)c1ccco1", "%", -0.3),
    ("CC1(C)CC(=O)NC1=O", "%", 9.3),
    ("CCCCCC(C)(O)CCC (centres undefined)", "%", -3.55),
    ("Cc1nn(C)c(C#N)c1[N+](=O)[O-]", "%", 0.8),
    ("O=C(/C=C/NC(=O)OCc1ccccc1)OCc1ccccc1", "%", 0.95),
    ("O=C(O)CCc1cccc2ccccc12", "%", 35.3),
    ("CCOC(=O)C(=CN1CCCc2ccccc21)C(=O)OCC", "%", -6.15),
    ("CCC(C(=O)NC1c2ccccc2Oc2ccccc21)c1ccccc1 (centres undefined)", "%", -2.5),
    ("O=S(=O)(O)CCCC1S(=O)(=O)OCCOS1(=O)=O", "%", -25.8),
    ("CSc1ccc(NC(=O)Oc2ccc(NC(C)=O)cc2)cc1", "%", 4.45),
    ("COc1ccc(COC(=O)NNC(=O)C2CSC(c3ccccc3)N2C(C)=O)cc1 (centres undefined)", "%", -10.3),
    ("Cc1ccc(NC(=O)c2cc3ccccc3c(N=Nc3ccccc3O)c2O)c(C)c1", "%", 10.7),
    ("O=C(NCCCl)c1ccc(F)cc1", "%", -44.7),
    ("CC(=O)OCC1OC(n2cccnc2=O)C(OC(C)=O)C1OC(C)=O (centres undefined)", "%", 0.9),
    ("CN(C)CCNc1ncnc2nc(-c3ccc4ccccc4c3)[nH]c12", "%", -18.6),
    ("CC(C(=O)C(=O)Nc1ccc(Cl)cc1)C(=O)c1ccc(Cl)cc1 (centres undefined)", "%", -17.3),
    ("COc1cc2ccc1OCc1cccc(n1)COc1ccc(cc1OC)C=NCCNCCN=C2", "%", -17.4),
    ("O=C1Nc2ccccc2/C1=N/N=P(c1ccccc1)(c1ccccc1)c1ccccc1", "%", -5.15),
    ("C1CCC2(CC1)OCCS2", "%", 6.15),
    ("Cc1cc(S(=O)(=O)NC(=NCC(=O)NN)NN)c(S)cc1Cl", "%", 15.4),
]
